The measurements presented in this section are drawn from ChEMBL document CHEMBL3988442.

A collection of compounds and their measured Percent Effect
molecular target: Protein translocase subunit SecA (Escherichia coli (strain K12)) (UniProt P10408); test: Assay to Identify E. coli SecA ATPase Inhibitors; assay type: functional; parameters: scale not given: direction of the effect not stated beside the values; conditions: 30 µM
Sequence (P10408 whole entry): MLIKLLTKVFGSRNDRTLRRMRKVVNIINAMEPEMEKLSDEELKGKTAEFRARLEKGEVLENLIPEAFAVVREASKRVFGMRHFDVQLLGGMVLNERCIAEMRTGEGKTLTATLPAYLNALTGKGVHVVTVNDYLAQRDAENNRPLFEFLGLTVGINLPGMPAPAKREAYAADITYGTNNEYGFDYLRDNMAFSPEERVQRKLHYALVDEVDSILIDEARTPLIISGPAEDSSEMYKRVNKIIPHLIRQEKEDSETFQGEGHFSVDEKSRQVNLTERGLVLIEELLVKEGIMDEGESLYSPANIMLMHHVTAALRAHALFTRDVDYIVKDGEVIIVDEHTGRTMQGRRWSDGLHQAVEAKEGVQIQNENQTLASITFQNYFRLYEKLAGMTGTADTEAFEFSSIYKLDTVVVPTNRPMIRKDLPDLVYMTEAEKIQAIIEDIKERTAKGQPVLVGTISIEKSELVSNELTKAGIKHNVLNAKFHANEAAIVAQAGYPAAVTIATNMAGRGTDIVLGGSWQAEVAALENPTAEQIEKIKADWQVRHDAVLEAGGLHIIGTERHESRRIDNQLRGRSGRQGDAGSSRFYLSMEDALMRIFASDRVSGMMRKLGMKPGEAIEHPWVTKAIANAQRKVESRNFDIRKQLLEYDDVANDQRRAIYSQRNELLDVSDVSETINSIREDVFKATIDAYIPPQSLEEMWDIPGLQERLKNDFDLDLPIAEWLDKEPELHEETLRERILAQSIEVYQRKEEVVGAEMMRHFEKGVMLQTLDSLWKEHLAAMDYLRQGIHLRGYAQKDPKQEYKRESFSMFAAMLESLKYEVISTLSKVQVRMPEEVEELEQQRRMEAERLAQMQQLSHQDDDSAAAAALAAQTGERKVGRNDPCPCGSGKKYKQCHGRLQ
Results with a measured potency or affinity are listed apart.
READOUT: Percent Effect

> print(dat)
                                    compound                            assayed.target         readout  result
 1  Cc1nn(C)cc1CCC(=O)N1CCCC(n2cncn2)C1 (centres undefined)  Protein translocase subunit SecA (Escherichia coli (strain K12)) (UniProt P10408)  Percent Effect   -2.9%
 2  CC(=O)NCCc1cc(N2CCN(C(C)=O)CC2)nc(C2CC2)n1  Protein translocase subunit SecA (Escherichia coli (strain K12)) (UniProt P10408)  Percent Effect   2.03%
 3  c1ccc(C(OCCNC2CCc3ncnn3C2)c2ccccc2)cc1 (centres undefined)  Protein translocase subunit SecA (Escherichia coli (strain K12)) (UniProt P10408)  Percent Effect  -5.97%
 4          Cc1nn(C(C)C)c(C)c1NC(=O)c1ccccc1  Protein translocase subunit SecA (Escherichia coli (strain K12)) (UniProt P10408)  Percent Effect  -2.77%
 5  CCC(CC)C(=O)N1CCC2(C1)CN(c1ccccc1)C(=O)CN2C (centres undefined)  Protein translocase subunit SecA (Escherichia coli (strain K12)) (UniProt P10408)  Percent Effect  -1.78%
 6  Cc1cnn(C(C)C2CC2)c1NC(=O)c1cnccn1 (centres undefined)  Protein translocase subunit SecA (Escherichia coli (strain K12)) (UniProt P10408)  Percent Effect  -5.04%
 7  C1CC(CN2CCO[C@H]3[C@H](OCC4CC4)CC[C@@H]32)CCO1  Protein translocase subunit SecA (Escherichia coli (strain K12)) (UniProt P10408)  Percent Effect  -7.62%
 8  CC(C)NC(=O)[C@H]1C[C@@H]2[C@@H](C1)OCCN2Cc1cnn(C)c1  Protein translocase subunit SecA (Escherichia coli (strain K12)) (UniProt P10408)  Percent Effect  -3.53%
 9  O=C(NCCC1=CCCCC1)C1CCN(c2ccc3nncn3n2)CC1  Protein translocase subunit SecA (Escherichia coli (strain K12)) (UniProt P10408)  Percent Effect  -2.89%
10  CC(C)c1cc(C(=O)N(C)Cc2cccc3ncccc23)n(C)n1  Protein translocase subunit SecA (Escherichia coli (strain K12)) (UniProt P10408)  Percent Effect   -3.2%
11  Nc1nccc(N2CCC(Cc3ccccc3Cl)(C(=O)O)CC2)n1  Protein translocase subunit SecA (Escherichia coli (strain K12)) (UniProt P10408)  Percent Effect  -1.91%
12  c1ccc(Cn2cc3c(n2)C(COCC2CC2)OCC3)nc1 (centres undefined)  Protein translocase subunit SecA (Escherichia coli (strain K12)) (UniProt P10408)  Percent Effect   3.09%
13             CCSc1cc(C(=O)NCc2ccccc2O)ccn1  Protein translocase subunit SecA (Escherichia coli (strain K12)) (UniProt P10408)  Percent Effect  -5.37%
14         O=C(NCCN1CCC(c2cccs2)CC1)Nc1cccs1  Protein translocase subunit SecA (Escherichia coli (strain K12)) (UniProt P10408)  Percent Effect  -5.82%
15  Cc1nc(-c2ccsc2)ccc1C(=O)NCCC1CCCO1 (centres undefined)  Protein translocase subunit SecA (Escherichia coli (strain K12)) (UniProt P10408)  Percent Effect  -8.67%
16  COc1ccc(Br)c(C(=O)NCC2CCN(C(=O)c3ccoc3)CC2)c1  Protein translocase subunit SecA (Escherichia coli (strain K12)) (UniProt P10408)  Percent Effect  -6.69%
17  COCCC(=O)N1CCC2(CC1)CC(c1ccccc1)CN(C)C2 (centres undefined)  Protein translocase subunit SecA (Escherichia coli (strain K12)) (UniProt P10408)  Percent Effect  -6.06%
18  CCC(NC(N)=O)c1ccccc1OCC(=O)N1CCCC1 (centres undefined)  Protein translocase subunit SecA (Escherichia coli (strain K12)) (UniProt P10408)  Percent Effect   -1.4%
19  COc1ccc2c(c1)CCCN2Cc1nc2c(cnn2C)c(=O)[nH]1  Protein translocase subunit SecA (Escherichia coli (strain K12)) (UniProt P10408)  Percent Effect  -3.64%
20      Cc1nc(COC[C@@H]2CCC[C@@]23CNCCO3)cs1  Protein translocase subunit SecA (Escherichia coli (strain K12)) (UniProt P10408)  Percent Effect  -4.17%
21   CCn1ccnc1CN1CCCN(C(=O)c2cccc(C#N)c2)CC1  Protein translocase subunit SecA (Escherichia coli (strain K12)) (UniProt P10408)  Percent Effect  0.122%
22  CC(C)CNC(=O)c1ccc2nnc(C3CCN(S(C)(=O)=O)C3)n2c1 (centres undefined)  Protein translocase subunit SecA (Escherichia coli (strain K12)) (UniProt P10408)  Percent Effect   -3.3%
23  Cn1nnc2c1CCN(Cc1nccs1)C2COCc1ccccc1 (centres undefined)  Protein translocase subunit SecA (Escherichia coli (strain K12)) (UniProt P10408)  Percent Effect  -2.95%
24  O=C1C(NCc2nnc3n2CCCC3)CCN1c1ccccc1 (centres undefined)  Protein translocase subunit SecA (Escherichia coli (strain K12)) (UniProt P10408)  Percent Effect  -2.98%

###

Measured Percent Effect, listed per entry.
target: Sialic acid-binding Ig-like lectin 9 (Homo sapiens) (UniProt Q9Y336); assay: Hs-Siglec9 ALPHAscreen SOP 20170721; set-up: scale not given: direction of the effect not stated beside the values; details: 10 µM
Sequence (Q9Y336 whole entry): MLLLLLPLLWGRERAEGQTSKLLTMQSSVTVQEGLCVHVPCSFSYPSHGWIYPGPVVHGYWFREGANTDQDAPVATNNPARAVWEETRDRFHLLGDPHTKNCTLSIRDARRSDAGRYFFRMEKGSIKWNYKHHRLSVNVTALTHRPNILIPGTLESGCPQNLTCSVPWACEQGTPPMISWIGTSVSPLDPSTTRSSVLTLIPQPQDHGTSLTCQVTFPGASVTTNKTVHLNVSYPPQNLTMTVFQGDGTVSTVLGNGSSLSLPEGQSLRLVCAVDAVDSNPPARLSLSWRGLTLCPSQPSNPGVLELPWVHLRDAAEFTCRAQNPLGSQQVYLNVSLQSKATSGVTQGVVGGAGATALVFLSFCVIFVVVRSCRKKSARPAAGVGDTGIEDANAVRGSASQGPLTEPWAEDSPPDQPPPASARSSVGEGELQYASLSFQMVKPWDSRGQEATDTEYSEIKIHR
READOUT: Percent Effect (%)

> print(dat)
                                    compound                            assayed.target  recorded.number
 1  CN(C)CCN1C[C@@H]2CN(C(=O)c3ccsc3)C[C@@H]2C1=O  Sialic acid-binding Ig-like lectin 9 (Homo sapiens) (UniProt Q9Y336)             5.55
 2  Cc1cc(C)n(C2CN(CC(=O)NCC(C)(C)N3CCOCC3)C2)n1  Sialic acid-binding Ig-like lectin 9 (Homo sapiens) (UniProt Q9Y336)              2.3
 3      O=C(c1ccccn1)N1CCn2cnc(COCC3CC3)c2C1  Sialic acid-binding Ig-like lectin 9 (Homo sapiens) (UniProt Q9Y336)              4.7
 4    CC1(C)Cc2ccccc2-c2nc(NCCO)[nH]c(=O)c21  Sialic acid-binding Ig-like lectin 9 (Homo sapiens) (UniProt Q9Y336)             4.58
 5         Cn1ccnc1CN1CCN(CCOc2ccccc2C#N)CC1  Sialic acid-binding Ig-like lectin 9 (Homo sapiens) (UniProt Q9Y336)            -9.14
 6  O=C(NCCCNCC1CNc2ccnn2C1)c1ccccc1 (configuration not stated)  Sialic acid-binding Ig-like lectin 9 (Homo sapiens) (UniProt Q9Y336)            -3.11
 7  O=C(CCNc1ncccn1)N1CCCC(n2ccnc2)C1 (configuration not stated)  Sialic acid-binding Ig-like lectin 9 (Homo sapiens) (UniProt Q9Y336)           -0.356
 8  O=C1NCC[C@]12CN(Cc1ccoc1)C[C@H]2c1ccccc1  Sialic acid-binding Ig-like lectin 9 (Homo sapiens) (UniProt Q9Y336)            -15.6
 9  CCOc1ccccc1CSc1nnc(CC2CCS(=O)(=O)C2)n1C (configuration not stated)  Sialic acid-binding Ig-like lectin 9 (Homo sapiens) (UniProt Q9Y336)             1.02
10  O=C1CC(c2ccsc2)c2sc(C(=O)O)c(-c3ccccc3)c2N1 (configuration not stated)  Sialic acid-binding Ig-like lectin 9 (Homo sapiens) (UniProt Q9Y336)             8.19
11  O=C(O)c1cc(S(=O)(=O)Nc2ccc(Cl)cc2)cc2c1OCCO2  Sialic acid-binding Ig-like lectin 9 (Homo sapiens) (UniProt Q9Y336)             2.13
12  CSc1ccc(C(CN)N2CCc3sccc3C2)cc1 (configuration not stated)  Sialic acid-binding Ig-like lectin 9 (Homo sapiens) (UniProt Q9Y336)            -9.22

###

target: AMP-activated protein kinase, AMPK (Homo sapiens) (UniProt P54646+O43741+P54619+Q9UGJ0+Q9Y478+Q13131+Q9UGI9); experiment: AMP-dependent Kinase enzyme assay. An in vitro enzyme assay that detects ADP turnover that is directly proportional to AMPK activity. This uses naive AMPK that is activated during the assay with MK-8722; type: functional; parameters: scale not given: direction of the effect not stated beside the values; details: 30 µM
READOUT: Percent Effect (%)

> print(dat)
                                    compound         readout  recorded.number
 1  Cc1nc(CN2CCCC(NCc3ccsc3)C2)no1 (configuration not stated)  Percent Effect            -3.38
 2  CC1CN(C)c2ccccc2CN1C(=O)CSc1ccncc1 (configuration not stated)  Percent Effect             2.54
 3  O=C(C(CNCc1ccncc1)c1ccccc1)N1CCOCC1 (configuration not stated)  Percent Effect            0.193
 4      CCc1ccc(C(=O)N2CCC(c3nncn3CC)CC2)cc1  Percent Effect            -9.82
 5      CN(CCCOc1ccccc1)C(=O)CN1CCc2cncnc2C1  Percent Effect            -41.1
 6  CC(C)C(C)NC(=O)Nc1ccc(CS(C)(=O)=O)cc1 (configuration not stated)  Percent Effect             7.91
 7     Cc1cccc(NC(=O)NCCCn2nc3ccccn3c2=O)c1C  Percent Effect              -32
 8  CC(C)(C)c1n[nH]c(C2CN(C(=O)c3csnn3)CCO2)n1 (configuration not stated)  Percent Effect            -1.35
 9  COc1ccc(OC)c(C(C)Nc2nc3c(C)nn(C)c3c(=O)n2C)c1 (configuration not stated)  Percent Effect             5.05
10       c1csc(N2CCCN(Cc3nc(C4CC4)no3)CC2)n1  Percent Effect             -4.1
11  COc1cccc(S(=O)(=O)N2CCn3cnc(COCC4CC4)c3C2)c1  Percent Effect             2.22
12  Cc1cnn(CC2CN(CCS(=O)(=O)c3ccccc3)CCO2)c1 (configuration not stated)  Percent Effect            0.043
